src = ChEMBL document CHEMBL1201862

Please go through the items and note down their GI50.
Test system: HCC 2998
Experiment Notes: NCI tumour cell line growth inhibition, 48 h
Calls of active or inactive are those of the source. Cut-off read from the data, not from the text of the source: active = GI50 up to about 1.1 µM and inactive = higher.

Summary: CNC(=O)N(CCC#N)CCCN(C(=O)N(C)C)c1ccccc1 , HCC 2998, GI50 = > 100 µM (inactive)

Summary: CCCN(CCCC(NC(C)=O)C(=O)NCc1ccccc1)C(=O)N(CCCl)N=O (stereo unspecified) , HCC 2998, GI50 = 4.4 µM (inactive)

Summary: CO[C@H]1O[C@@H]2CO[C@@H](c3ccccc3)O[C@H]2C[C@]12CCC/C=C\CO2 , HCC 2998, GI50 = 18.7 µM (inactive)

Summary: C=C1CC(c2ccc(OCCCN3C(=O)c4ccccc4C3=O)c(OC)c2)OC1=O (stereo unspecified) , HCC 2998, GI50 = 12 µM (inactive)

Summary: N[C@H]1C2C3CC4C5CC(C42)C1(c1ccccc1)C53 (stereo partly specified) , HCC 2998, GI50 = 29.7 µM (inactive)

Summary: C=C(C)c1nc(C#N)c(N)o1 , HCC 2998, GI50 = > 100 µM (inactive)

Summary: OCc1nnn2c1CCC2 , HCC 2998, GI50 = > 100 µM (inactive)

Summary: N=C(N)N1CCC(N2CCOCC2)CC1 , HCC 2998, GI50 = > 100 µM (inactive)

Summary: CC(C)CCCC(C)[C@H]1CC[C@H]2[C@@H]3CC[C@H]4C[C@@H](CCC=C(c5cc(Cl)c(O)c(C(=O)OC(C)(C)C)c5)c5cc(Cl)c(O)c(C(=O)OC(C)(C)C)c5)CC[C@]4(C)[C@H]3CC[C@]12C (stereo partly specified) , HCC 2998, GI50 = > 50 µM (inactive)

Summary: Cc1nc(Nc2nc3ccccc3[nH]2)[nH]c(=O)c1CCO , HCC 2998, GI50 = > 100 µM (inactive)

Summary: COc1cc2ncnc(Nc3cccc(Br)c3)c2cc1OC , HCC 2998, GI50 = 3.26 µM (inactive)
